Origin of values: paper PMC4556614

Listed next: entries and their corresponding % Inhibition of OCT2-dependent MF uptake at 20 µM (mean ± SEM).
molecular target: OCT2 (Homo sapiens, UniProt O15244); assay: in vitro; details: human, pH 7.3
Sequence (O15244 whole entry): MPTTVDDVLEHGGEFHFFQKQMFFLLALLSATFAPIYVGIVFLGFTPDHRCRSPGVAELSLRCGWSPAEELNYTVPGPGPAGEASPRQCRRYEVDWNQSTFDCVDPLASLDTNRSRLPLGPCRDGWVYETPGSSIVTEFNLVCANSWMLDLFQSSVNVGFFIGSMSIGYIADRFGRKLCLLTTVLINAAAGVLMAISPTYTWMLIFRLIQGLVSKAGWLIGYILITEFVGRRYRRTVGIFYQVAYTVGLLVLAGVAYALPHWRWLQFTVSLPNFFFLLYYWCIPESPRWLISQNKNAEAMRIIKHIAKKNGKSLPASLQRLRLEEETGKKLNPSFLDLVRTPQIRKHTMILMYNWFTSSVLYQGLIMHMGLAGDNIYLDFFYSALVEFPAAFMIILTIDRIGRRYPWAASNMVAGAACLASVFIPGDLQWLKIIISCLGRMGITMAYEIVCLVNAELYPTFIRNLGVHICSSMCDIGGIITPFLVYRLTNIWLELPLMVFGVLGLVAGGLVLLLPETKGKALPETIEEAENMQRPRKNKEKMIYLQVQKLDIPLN
Simply state the number, no unit and no words.

Study these solved cases before continuing.
Param readout= % Inhibition of OCT2-dependent MF uptake at 20 µM (mean ± SEM); system= OCT2 (Homo sapiens, UniProt O15244); entry= Cc1cc2c(s1)Nc1ccccc1N=C2N1CCN(C)CC1 [Olanzapine] ; returns value.
-7.5

Param readout= % Inhibition of OCT2-dependent MF uptake at 20 µM (mean ± SEM); system= OCT2 (Homo sapiens, UniProt O15244); entry= CN1CCN(CCCN2c3ccccc3Sc3ccccc32)CC1 [Perazine] ; returns value.
53.6

Param readout= % Inhibition of OCT2-dependent MF uptake at 20 µM (mean ± SEM); system= OCT2 (Homo sapiens, UniProt O15244); entry= Cc1ccc(-c2ncc(Cl)cc2-c2ccc(S(C)(=O)=O)cc2)cn1 [Etoricoxib] ; returns value.
64.1

Next, consider the following molecule.
Param readout= % Inhibition of OCT2-dependent MF uptake at 20 µM (mean ± SEM); system= OCT2 (Homo sapiens, UniProt O15244); entry= NC(=O)CN1CCCC1=O [Piracetam] ; returns value.
3.4

---

Target: OCT2 (Homo sapiens, UniProt O15244)
Test: Inhibition of OCT2-mediated [3H]MPP+ uptake in HEK-OCT2 cells
Conditions: human, pH 7.3
Method: For the transport assays HEK cell lines stably transfected with human OCT2 (HEK-OCT2) or the vector only (HEK-VC) were used. The HEK-OCT2 cell line was established and characterized previously. […] The intracellular accumulation of radioactivity was determined by liquid scintillation counting (PerkinElmer, Rodgau-Jügesheim, Germany) and protein concentration of each lysate was measured with bicinchonic acid assay (BCA Protein Assay Kit, Thermo Fisher Scientific, Waltham, MA, USA). […]
Listed next: entries and their corresponding % Inhibition of OCT2-dependent MPP+ uptake at 20 µM (mean ± SEM).
Simply state the number, no unit and no words.

Study these solved cases before continuing.
Given the entry COC(=O)[C@H](c1ccccc1Cl)N1CCc2sccc2C1 , report its measured % Inhibition of OCT2-dependent MPP+ uptake at 20 µM (mean ± SEM).
12.5

Given the entry NCC1(CC(=O)O)CCCCC1 , report its measured % Inhibition of OCT2-dependent MPP+ uptake at 20 µM (mean ± SEM).
-8.4

Given the entry Cc1ccc(-c2nc3ccc(C)cn3c2CC(=O)N(C)C)cc1 , report its measured % Inhibition of OCT2-dependent MPP+ uptake at 20 µM (mean ± SEM).
36.5

Given the entry COC(=O)C(c1ccccc1)C1CCCCN1 (stereo not shown) [Methylphenidate] , report its measured % Inhibition of OCT2-dependent MPP+ uptake at 20 µM (mean ± SEM).
11.5

Given the entry CC(C)C[C@H](CN)CC(=O)O , report its measured % Inhibition of OCT2-dependent MPP+ uptake at 20 µM (mean ± SEM).
-29.6

Continuing:
Given the entry COc1cccc(C2(O)CCCCC2CN(C)C)c1 (stereo not shown) , report its measured % Inhibition of OCT2-dependent MPP+ uptake at 20 µM (mean ± SEM).
5.9

Given the entry O=C1Nc2ccc(Cl)cc2C(c2ccccc2)=NC1O (stereo not shown) , report its measured % Inhibition of OCT2-dependent MPP+ uptake at 20 µM (mean ± SEM).
37.6

Given the entry CN1C(=O)C(O)N=C(c2ccccc2Cl)c2cc(Cl)ccc21 (stereo not shown) , report its measured % Inhibition of OCT2-dependent MPP+ uptake at 20 µM (mean ± SEM).
47.8

Given the entry CNCC[C@H](Oc1cccc2ccccc12)c1cccs1 , report its measured % Inhibition of OCT2-dependent MPP+ uptake at 20 µM (mean ± SEM).
23.3
